pIC50: −log10 of the molar value.
Parameter 'readout' = pIC50; parameter 'system' = Acetylcholinesterase (Electrophorus electricus, UniProt O42275).
Sequence (O42275 whole entry): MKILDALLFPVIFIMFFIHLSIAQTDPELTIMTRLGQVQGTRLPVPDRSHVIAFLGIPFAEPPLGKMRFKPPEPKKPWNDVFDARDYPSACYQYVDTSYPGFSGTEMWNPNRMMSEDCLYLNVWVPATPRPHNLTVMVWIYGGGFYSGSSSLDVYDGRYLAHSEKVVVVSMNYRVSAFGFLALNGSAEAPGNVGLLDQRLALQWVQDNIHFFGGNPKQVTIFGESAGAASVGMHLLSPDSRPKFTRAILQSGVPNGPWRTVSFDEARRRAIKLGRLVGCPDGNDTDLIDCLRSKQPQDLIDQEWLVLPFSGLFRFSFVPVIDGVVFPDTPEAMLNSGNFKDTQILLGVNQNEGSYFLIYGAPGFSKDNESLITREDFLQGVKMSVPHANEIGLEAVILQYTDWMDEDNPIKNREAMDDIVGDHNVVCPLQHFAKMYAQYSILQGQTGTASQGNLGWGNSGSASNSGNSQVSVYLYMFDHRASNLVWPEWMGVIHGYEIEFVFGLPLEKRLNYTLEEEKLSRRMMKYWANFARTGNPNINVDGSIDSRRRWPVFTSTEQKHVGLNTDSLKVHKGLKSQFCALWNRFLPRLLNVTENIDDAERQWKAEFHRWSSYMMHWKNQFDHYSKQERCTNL
observation-type: pIC50

- substance-smiles: "Cl.N[C@H]1CCN(c2c3c(nc4ccc(-c5ccnc(NC(=O)C6CC6)n5)cc24)CCCCC3)C1"
  target-system: "Acetylcholinesterase (Electrophorus electricus, UniProt O42275)"
  lt-gt-eq: "="
  result-value: 4.72
- substance-smiles: "N[C@H]1CCN(c2c3c(nc4ccc(-c5ccnc(NC(=O)C6CCC6)c5)cc24)CCCCCC3)C1"
  target-system: "Acetylcholinesterase (Electrophorus electricus, UniProt O42275)"
  lt-gt-eq: "="
  result-value: 4.58
- substance-smiles: "N[C@H]1CCN(c2c3c(nc4ccc(-c5ccccc5)cc24)CCCCC3)C1"
  target-system: "Acetylcholinesterase (Electrophorus electricus, UniProt O42275)"
  lt-gt-eq: "="
  result-value: 4.72
- substance-smiles: "N[C@H]1CCN(c2c3c(nc4ccc(-c5cccnc5)cc24)CCCCC3)C1"
  target-system: "Acetylcholinesterase (Electrophorus electricus, UniProt O42275)"
  lt-gt-eq: "="
  result-value: 4.86
- substance-smiles: "N[C@H]1CCN(c2c3c(nc4ccc(-c5ccnc(NC(=O)C6CC6)c5)cc24)CCCCCC3)C1"
  target-system: "Acetylcholinesterase (Electrophorus electricus, UniProt O42275)"
  lt-gt-eq: "="
  result-value: 4.76
- substance-smiles: "N[C@H]1CCN(c2c3c(nc4ccc(-c5ccnc(C(=O)NC6CC6)c5)cc24)CCCCC3)C1"
  target-system: "Acetylcholinesterase (Electrophorus electricus, UniProt O42275)"
  lt-gt-eq: "="
  result-value: 5.25
- substance-smiles: "N[C@H]1CCN(c2c3c(nc4ccc(-c5ccnc(Nc6ccc(S(=O)(=O)N7CCOCC7)cc6)c5)cc24)CCCCC3)C1"
  target-system: "Acetylcholinesterase (Electrophorus electricus, UniProt O42275)"
  lt-gt-eq: "="
  result-value: 4.60
- substance-smiles: "N[C@H]1CCN(c2c3c(nc4ccc(-c5ccncc5)cc24)CCCCC3)C1"
  target-system: "Acetylcholinesterase (Electrophorus electricus, UniProt O42275)"
  lt-gt-eq: "="
  result-value: 4.61
- substance-smiles: "N[C@H]1CCN(c2c3c(nc4ccc(-c5ccnc(NC(=O)C6CC6)c5)cc24)CCC3)C1"
  target-system: "Acetylcholinesterase (Electrophorus electricus, UniProt O42275)"
  lt-gt-eq: "="
  result-value: 5.65
- substance-smiles: "CS(=O)(=O)c1ccc(Nc2cc(-c3ccc4nc5c(c(N6CC[C@H](N)C6)c4c3)CCCCC5)ccn2)cc1"
  target-system: "Acetylcholinesterase (Electrophorus electricus, UniProt O42275)"
  lt-gt-eq: "="
  result-value: 4.62
- substance-smiles: "N[C@H]1CCN(c2c3c(nc4ccc(-c5ccnc(NC(=O)C6CCC6)c5)cc24)CCCCC3)C1"
  target-system: "Acetylcholinesterase (Electrophorus electricus, UniProt O42275)"
  lt-gt-eq: "="
  result-value: 4.75
- substance-smiles: "N[C@H]1CCN(c2c3c(nc4ccc(-c5ccnc(F)c5)cc24)CCCCC3)C1"
  target-system: "Acetylcholinesterase (Electrophorus electricus, UniProt O42275)"
  lt-gt-eq: "="
  result-value: 4.67
- substance-smiles: "N[C@H]1CCN(c2c3c(nc4ccc(-c5ccnc(NC(=O)C6CCCC6)c5)cc24)CCCCC3)C1"
  target-system: "Acetylcholinesterase (Electrophorus electricus, UniProt O42275)"
  lt-gt-eq: "="
  result-value: 4.77
- substance-smiles: "N[C@H]1CCN(c2c3c(nc4ccc(-c5cc(NC(=O)C6CC6)ncn5)cc24)CCCCC3)C1"
  target-system: "Acetylcholinesterase (Electrophorus electricus, UniProt O42275)"
  lt-gt-eq: "="
  result-value: 5.14
- substance-smiles: "N[C@H]1CCN(c2c3c(nc4ccc(-c5nccc(NC(=O)C6CC6)n5)cc24)CCCCC3)C1"
  target-system: "Acetylcholinesterase (Electrophorus electricus, UniProt O42275)"
  lt-gt-eq: "="
  result-value: 4.75
- substance-smiles: "N[C@H]1CCN(c2c3c(nc4ccc(-c5ccnc(Nc6cccc(S(=O)(=O)N7CCOCC7)c6)c5)cc24)CCCCC3)C1"
  target-system: "Acetylcholinesterase (Electrophorus electricus, UniProt O42275)"
  lt-gt-eq: "="
  result-value: 4.54
- substance-smiles: "N[C@H]1CCN(c2c3c(nc4ccc(-c5ccnc(Nc6ccc(S(=O)(=O)N7CCCC7)cc6)c5)cc24)CCCCC3)C1"
  target-system: "Acetylcholinesterase (Electrophorus electricus, UniProt O42275)"
  lt-gt-eq: "<"
  result-value: 4.30
- substance-smiles: "N[C@H]1CCN(c2c3c(nc4ccc(-c5ccnc(NC(=O)C6CC6)c5)cc24)-c2ccccc2CCC3)C1"
  target-system: "Acetylcholinesterase (Electrophorus electricus, UniProt O42275)"
  lt-gt-eq: "<"
  result-value: 4.30
